Biological target: glucagon receptor (UniProt P47871)
Sequence (P47871 26-477 limits assumed): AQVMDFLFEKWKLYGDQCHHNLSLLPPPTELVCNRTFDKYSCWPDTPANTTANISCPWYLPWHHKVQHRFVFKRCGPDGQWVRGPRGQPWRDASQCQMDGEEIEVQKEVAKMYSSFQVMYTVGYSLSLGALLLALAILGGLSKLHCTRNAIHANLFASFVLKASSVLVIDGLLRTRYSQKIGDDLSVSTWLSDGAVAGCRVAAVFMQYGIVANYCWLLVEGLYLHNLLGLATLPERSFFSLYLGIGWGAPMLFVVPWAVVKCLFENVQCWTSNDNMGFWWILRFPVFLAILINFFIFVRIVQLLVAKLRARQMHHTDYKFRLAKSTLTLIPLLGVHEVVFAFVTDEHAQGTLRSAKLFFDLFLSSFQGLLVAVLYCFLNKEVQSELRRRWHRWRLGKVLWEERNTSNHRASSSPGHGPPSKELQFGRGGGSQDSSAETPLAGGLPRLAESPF
Assay: cell-based or functional assay
As shown below, each of these binders has a reported Glu IC50 value.
attribute measured: Glu IC50

INSERT INTO measurements (binder, recorded_value) VALUES
  ('FTSEYSKYLDERRAKDFVQWLMNTGPSSGAPPPS (lactam between E16 and K20 (glucagon numbering)) [Glucagon (6-CEX) analog E9, E16K20 (lactam)]', '0.042 µM'),
  ('FTSDYSKYLDERRAQDFVQWLMNTGPSSGAPPPS (lactam between K12 and E16 (glucagon numbering)) [Glucagon (6-CEX) analog D9, K12E16 (Lactam)]', '0.828 µM'),
  ('TSEYSKYLDERRAQDFVQWLMNTGPSSGAPPPS (PLA at position 6, N-terminal to the letters given; lactam between K12 and E16 (glucagon numbering)) [[PLA6, E9, K12E16 (Lactam)] glucagon (6-CEX) analog]', '0.072 µM'),
  ('FTSEYSKYLDERRAQDFVQWLMNTGPSSGAPPPS (lactam between K12 and E16 (glucagon numbering)) [Glucagon (6-CEX) analog E9, K12E16 (lactam)]', '2.01 µM'),
  ('FTSEYSKYLDERRAQDFVQWLMNTGPSSGAPPPS [Glucagon (6-CEX) analog E9, K12, E16]', '0.762 µM');
